biological target: Phosphorylase b kinase gamma catalytic chain, skeletal muscle/heart isoform (Homo sapiens); conditions: at 1 µM
test_readout: inhibition (%)
Supply the numeric figure in %, leaving out any unit text.

COc1ccc2ncn(-c3cc(O[C@H](C)c4ccccc4C(F)(F)F)c(C(N)=O)s3)c2c1: 3.44
Cc1cc(O)cc(C)c1/C=C/c1cncc(C(=O)OC(C)(C)C)c1: -7.1
CN(C)CCNC(=O)Nc1ccc(N(C)c2ccnc(Nc3ccc(CS(C)(=O)=O)cc3)n2)cc1: 4.59
CS(=O)(=O)CCNCc1ccoc1-c1ccc2ncnc(Nc3ccc(OCc4ccccc4)cc3)c2c1: 3.12
CC1=C(C(=O)Nc2ccc3[nH]ncc3c2)C(c2ccc(F)cc2)N=C(c2ccc(C(F)(F)F)nc2)N1 (centres undefined): 1.77

Query string: Param readout = inhibition; param system = Phosphorylase b kinase gamma catalytic chain, skeletal muscle/heart isoform (Homo sapiens); param query = NS(=O)(=O)c1cccc(N/C=C2\C(=O)Nc3ccccc32)c1 ; response: value
Result string: 33.3

Query string: Request: inhibition, test system Phosphorylase b kinase gamma catalytic chain, skeletal muscle/heart isoform (Homo sapiens), entry CCS(=O)(=O)c1ccc(OC)c(Nc2ncc(-c3cccc(F)c3)o2)c1;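 also: each value is a mean percent inhibition of PHKG1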
Result string: 24.7

Query string: Quick check: inhibition on Phosphorylase b kinase gamma catalytic chain, skeletal muscle/heart isoform (Homo sapiens), item CS(=O)(=O)CCNCc1ccc(-c2ccc3ncnc(Nc4ccc(OCc5cccc(C(F)(F)F)c5)cc4)c3c2)o1 ?
Result string: 4.94

Query string: Recall the recorded inhibition for O=C(Nc1n[nH]c2nnc(-c3cccnc3)cc12)C1CC1 with Phosphorylase b kinase gamma catalytic chain, skeletal muscle/heart isoform (Homo sapiens) and state it.
Result string: -0.03

---

molecular target: Serine/threonine-protein kinase MRCK beta (Homo sapiens) (UniProt Q9Y5S2); details: at 1 µM;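 also: averaged inhibition values against MRCK beta, part of the GSK PKIS profiling dataset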
Sequence (Q9Y5S2 whole entry): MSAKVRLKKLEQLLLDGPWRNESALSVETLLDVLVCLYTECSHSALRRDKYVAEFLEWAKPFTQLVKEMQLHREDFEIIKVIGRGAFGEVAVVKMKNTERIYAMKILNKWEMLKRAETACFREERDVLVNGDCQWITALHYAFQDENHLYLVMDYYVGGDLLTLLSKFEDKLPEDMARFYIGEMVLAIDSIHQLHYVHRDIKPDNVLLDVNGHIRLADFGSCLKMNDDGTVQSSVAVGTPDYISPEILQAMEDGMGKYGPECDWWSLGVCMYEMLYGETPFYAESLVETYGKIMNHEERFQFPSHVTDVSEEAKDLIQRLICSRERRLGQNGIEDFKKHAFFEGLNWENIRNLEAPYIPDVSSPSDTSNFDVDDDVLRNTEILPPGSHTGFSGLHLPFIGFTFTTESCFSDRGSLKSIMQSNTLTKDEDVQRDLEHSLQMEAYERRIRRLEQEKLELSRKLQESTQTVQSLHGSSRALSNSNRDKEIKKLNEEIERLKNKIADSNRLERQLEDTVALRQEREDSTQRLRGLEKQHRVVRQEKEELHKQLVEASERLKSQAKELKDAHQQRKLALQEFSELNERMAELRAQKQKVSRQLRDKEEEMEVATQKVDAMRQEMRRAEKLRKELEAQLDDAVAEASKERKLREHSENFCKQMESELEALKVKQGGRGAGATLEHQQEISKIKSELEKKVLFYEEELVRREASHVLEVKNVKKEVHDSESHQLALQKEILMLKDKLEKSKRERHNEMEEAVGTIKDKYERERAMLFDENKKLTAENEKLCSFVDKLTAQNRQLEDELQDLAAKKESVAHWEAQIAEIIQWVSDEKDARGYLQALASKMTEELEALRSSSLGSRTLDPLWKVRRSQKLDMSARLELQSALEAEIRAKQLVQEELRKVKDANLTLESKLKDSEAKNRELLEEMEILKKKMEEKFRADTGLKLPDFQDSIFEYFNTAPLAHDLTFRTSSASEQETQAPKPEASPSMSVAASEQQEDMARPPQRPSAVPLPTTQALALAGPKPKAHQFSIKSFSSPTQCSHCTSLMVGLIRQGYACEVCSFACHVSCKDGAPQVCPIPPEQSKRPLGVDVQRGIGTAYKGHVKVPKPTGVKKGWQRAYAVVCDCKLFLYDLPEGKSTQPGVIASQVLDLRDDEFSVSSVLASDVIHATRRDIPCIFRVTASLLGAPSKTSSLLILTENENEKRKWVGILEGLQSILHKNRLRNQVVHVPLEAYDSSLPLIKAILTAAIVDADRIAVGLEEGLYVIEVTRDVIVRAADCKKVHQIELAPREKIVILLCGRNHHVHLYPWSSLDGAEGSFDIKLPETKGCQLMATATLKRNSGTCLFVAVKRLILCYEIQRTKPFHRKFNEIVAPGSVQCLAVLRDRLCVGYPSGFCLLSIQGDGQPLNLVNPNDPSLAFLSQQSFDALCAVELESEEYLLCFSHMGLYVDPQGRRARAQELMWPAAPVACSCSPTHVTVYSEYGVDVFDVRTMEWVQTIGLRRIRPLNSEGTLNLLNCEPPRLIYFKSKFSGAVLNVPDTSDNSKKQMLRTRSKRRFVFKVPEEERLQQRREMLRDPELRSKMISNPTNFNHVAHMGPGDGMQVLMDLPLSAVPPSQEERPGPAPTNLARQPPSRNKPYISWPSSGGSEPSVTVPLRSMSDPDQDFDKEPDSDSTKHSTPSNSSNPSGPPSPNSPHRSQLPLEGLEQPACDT
test_readout: inhibition (%)
Please reply with the bare figure in % and do not write the unit itself.

For orientation, consider the following solved cases.
O=C(O[C@H]1CN[C@H](C#Cc2cc3ncnc(Nc4ccc5c(ccn5Cc5cc(F)ccc5F)c4)c3s2)C1)N1CCOCC1: 1.68
OCCCNc1nccc(-c2c(-c3ccc(F)cc3)nn3cc(C(F)(F)F)ccc23)n1: 1.86

// below: inhibition requested for another molecule
Query string: Returns the measured inhibition for the input molecule. Input: CNC(=O)c1sc(-n2cnc3cc(OC)c(OC)cc32)cc1OCc1ccccc1C(F)(F)F
Result string: -0.54

---

molecular target: Serine/threonine-protein kinase PAK 3 (Homo sapiens); conditions: at 0.1 µM;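 also: mean percent inhibition of PAK3, measured in a screen of the GSK published kinase inhibitor set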
Entries and their measured inhibition follow.
Note: unit % is implicit; provide only the numeric part.

Query string: Name the reported inhibition value associated with the compound CCOc1ccc2c(-c3ccnc(Nc4cc(OC)cc(C(F)(F)F)c4)n3)cnn2n1
Result string: -0.15

Query string: Entry COc1ccc(Nc2ncc(-c3ccccc3)o2)cc1OC has what inhibition?
Result string: -0.05

Query string: Requested read-out: inhibition. Entry: Fc1cccc(COc2ccc(Nc3ncncc3C#Cc3ccccc3)cc2Cl)c1
Result string: 4.76

Query string: What value of inhibition has been recorded for this entry: COc1cc(N2CCN(C(C)C)CC2)ccc1Nc1nc(Nc2cccc3ncccc23)c2cc[nH]c2n1
Result string: -1.68

Query string: Which inhibition is listed for Cc1nnc(-c2cccc(-c3ccc(C(=O)NCC4CC4)cc3)c2)o1 ?
Result string: 7.07

Query string: Which value of inhibition has been reported for Cc1ccc(-c2cc3c(NC(=O)C4CC4)ncnc3o2)cc1 in the records?
Result string: 3.79

Query string: Which inhibition value is on record for COc1ccc(-c2nn3ncccc3c2-c2ccnc(Nc3ccc(F)c(F)c3)n2)cc1 ?
Result string: 2.36

Query string: Returns the measured inhibition for the input compound. Input: CC1=C(C(=O)Nc2ccc3[nH]ncc3c2)C(c2ccc(F)cc2)N=C(c2ccc(C(F)(F)F)nc2)N1 (stereo unspecified)
Result string: 1.4

Query string: Recorded inhibition of CCN1CCC(C(=O)Nc2n[nH]c3nnc(-c4cccc(F)c4F)cc23)CC1 , please.
Result string: -0.81

Query string: Would you kindly share the measured inhibition for N#Cc1cccc(Nc2ncc(-c3ccccc3)o2)c1 ?
Result string: 2.61

Query string: Please report the recorded inhibition for CCn1c(-c2nonc2N)nc2cncc(C(=O)NCCNC)c21 .
Result string: 5.11

Query string: Name the recorded inhibition for CCS(=O)(=O)c1ccc(OC)c(Nc2ncc(-c3cccc(F)c3)o2)c1 .
Result string: 6

Query string: # inhibition lookup, item CNC(=O)c1sc(-n2cnc3cc(OC)c(OC)cc32)cc1OCc1ccccc1C(F)(F)F
Result string: 4.1

Query string: Name the recorded inhibition for COc1cc(N2CCN(C(C)C)CC2)ccc1Nc1nc(Nc2cccc(F)c2C(=O)O)c2cc[nH]c2n1 .
Result string: 4.37

Query string: What measured inhibition goes with COc1cc(Nc2ncc(-c3ccccc3)o2)cc(OC)c1 ?
Result string: 4.74

Query string: Looking for the measured inhibition of FC(F)(F)CNc1nccc(-c2cnn3ncccc23)n1 , can you help?
Result string: 4.27

Query string: So what's the measured inhibition for this one? O=C(O[C@H]1CN[C@H](C#Cc2cc3ncnc(Nc4ccc5c(ccn5Cc5cc(F)ccc5F)c4)c3s2)C1)N1CCOCC1
Result string: 5.02

Query string: Looking for the measured inhibition of CC1(C)CC(n2cnc(-c3ccc(F)cc3)c2-c2ccnc(N)n2)CC(C)(C)N1 , can you help?
Result string: 0.33

Query string: Look at this compound and give its reported inhibition. CN(C)CCNC(=O)Nc1ccc(N(C)c2ccnc(Nc3ccc(CS(C)(=O)=O)cc3)n2)cc1
Result string: 3.73

Query string: # get_value(readout='inhibition', item= NS(=O)(=O)c1cccc(N/C=C2\C(=O)Nc3ccccc32)c1 )
Result string: 4.81

Query string: Any idea what inhibition was measured for COc1c(C(N)=O)cc(-c2ccc(Cl)cc2)cc1-c1ccc(S(N)(=O)=O)cc1 ?
Result string: 4.51

---

molecular target: 5'-AMP-activated protein kinase catalytic subunit alpha-1 (Homo sapiens); conditions: at 0.1 µM;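 also: enzyme tested as the AMPK alpha1 beta1 gamma1 complex, values reported as mean percent inhibition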
Description: GSK_PKIS: AMPKA1 (A1B1G1) mean inhibition at 0.1 uM [Nanosyn]
Would you please tag the item yes when its inhibition is 3% or above, and no when it is below?

Recorded results for 3 compounds are shown here.
CNC(=O)c1sc(-n2cnc3cc(OC)c(OC)cc32)cc1OCc1ccccc1C(F)(F)F: yes
O=C(O[C@H]1CN[C@H](C#Cc2cc3ncnc(Nc4ccc5c(cnn5Cc5ccccc5)c4)c3s2)C1)N1CCOCC1: no
COc1ccc(-c2nn3ncccc3c2-c2ccnc(Nc3ccc(F)c(F)c3)n2)cc1: yes

Query string: Kindly determine if inhibition recorded for NS(=O)(=O)c1ccc(N/N=C2\C(=O)Nc3ccc(C(=O)NCc4ccncc4)cc32)cc1 is above or exactly 3%.
Result string: yes

Query string: State whether the measured inhibition reaches 3%, counting equality as reaching it, for c1cnn2ncc(-c3ccnc(NCCCN4CCOCC4)n3)c2c1
Result string: no

---

target: Casein kinase I isoform gamma-3 (Homo sapiens) (UniProt Q9Y6M4); conditions: at 0.1 µM;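 also: reported value is the mean percent inhibition of the kinase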
Sequence (Q9Y6M4 whole entry, looked up, canonical isoform): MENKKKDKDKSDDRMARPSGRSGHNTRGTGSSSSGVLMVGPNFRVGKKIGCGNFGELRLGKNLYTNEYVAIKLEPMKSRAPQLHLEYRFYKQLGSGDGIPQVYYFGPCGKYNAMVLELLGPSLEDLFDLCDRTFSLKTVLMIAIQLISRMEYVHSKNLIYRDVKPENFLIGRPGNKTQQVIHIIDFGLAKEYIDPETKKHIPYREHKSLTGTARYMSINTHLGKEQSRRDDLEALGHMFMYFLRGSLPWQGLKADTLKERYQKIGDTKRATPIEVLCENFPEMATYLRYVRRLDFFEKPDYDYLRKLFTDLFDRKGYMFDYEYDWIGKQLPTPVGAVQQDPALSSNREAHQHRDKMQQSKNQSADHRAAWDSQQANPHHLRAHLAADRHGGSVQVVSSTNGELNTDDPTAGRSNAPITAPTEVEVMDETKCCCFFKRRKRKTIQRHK
Listing of entries alongside the reported inhibition.
Unit % implied. Number only.

Query string: Record request: inhibition value, item CS(=O)(=O)CCNCc1ccoc1-c1ccc2ncnc(Nc3ccc(OCc4ccccc4)cc3)c2c1
Result string: 1.14

Query string: Suppose we examine the molecule CNC(=O)c1sc(-n2cnc3cc(OC)c(OC)cc32)cc1OCc1ccccc1C(F)(F)F ; what inhibition value has been reported?
Result string: 3.86

---

Target: Tyrosine-protein kinase Mer (Homo sapiens) (UniProt Q12866);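 also: values are mean inhibition of human MER kinase, from the GSK PKIS profiling panel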
Sequence (whole entry): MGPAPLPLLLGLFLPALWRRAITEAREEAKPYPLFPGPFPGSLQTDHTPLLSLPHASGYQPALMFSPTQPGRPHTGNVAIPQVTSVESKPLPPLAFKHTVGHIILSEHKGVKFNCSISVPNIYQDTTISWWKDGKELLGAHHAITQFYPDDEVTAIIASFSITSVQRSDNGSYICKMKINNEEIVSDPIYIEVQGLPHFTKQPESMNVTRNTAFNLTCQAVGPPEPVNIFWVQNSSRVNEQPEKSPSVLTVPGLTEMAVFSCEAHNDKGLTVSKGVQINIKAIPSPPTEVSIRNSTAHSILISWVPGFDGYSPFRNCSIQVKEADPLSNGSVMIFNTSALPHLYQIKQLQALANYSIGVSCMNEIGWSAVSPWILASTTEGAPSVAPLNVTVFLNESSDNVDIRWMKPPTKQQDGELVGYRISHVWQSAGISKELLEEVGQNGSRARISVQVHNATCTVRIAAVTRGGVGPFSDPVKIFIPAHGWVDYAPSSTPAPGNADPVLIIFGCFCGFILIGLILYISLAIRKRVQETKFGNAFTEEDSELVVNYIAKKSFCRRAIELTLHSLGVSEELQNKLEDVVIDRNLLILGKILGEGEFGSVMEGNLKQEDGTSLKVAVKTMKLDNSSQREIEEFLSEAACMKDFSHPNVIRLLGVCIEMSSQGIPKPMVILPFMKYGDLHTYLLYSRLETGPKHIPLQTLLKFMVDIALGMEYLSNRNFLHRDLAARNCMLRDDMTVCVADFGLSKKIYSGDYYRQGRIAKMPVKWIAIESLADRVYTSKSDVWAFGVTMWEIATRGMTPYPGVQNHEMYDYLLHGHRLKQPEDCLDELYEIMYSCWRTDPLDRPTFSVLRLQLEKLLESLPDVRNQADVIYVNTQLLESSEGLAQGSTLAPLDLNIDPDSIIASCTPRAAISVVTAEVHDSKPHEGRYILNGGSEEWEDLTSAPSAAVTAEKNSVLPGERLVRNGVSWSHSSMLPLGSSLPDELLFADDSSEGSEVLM
Conditions: at 1 µM
test_readout: inhibition (%)
Your answer should be a plain number; it is taken to be in %.

As a guide, the following entries are already answered.
CNC(=O)c1cncc(/C=C/c2ccccc2C)c1: 1.66
N#Cc1cccc(Nc2ncc(-c3ccccc3)o2)c1: 4.24
COc1cc(N2CCN(C(C)C)CC2)ccc1Nc1nc(Nc2cccc(F)c2C(=O)O)c2cc[nH]c2n1: 4.62
CS(=O)(=O)Nc1ccc(-c2cc(-c3ccccc3)cc(C(N)=O)c2N)cc1: -0.18
CCS(=O)(=O)c1ccc(OC)c(Nc2ncc(-c3cccc(F)c3)o2)c1: 9.7

Query string: Returns the measured inhibition for the input compound. Input: CS(=O)(=O)CCNCc1ccc(-c2ccc3ncnc(Nc4ccc(OCc5cccc(C(F)(F)F)c5)cc4)c3c2)o1
Result string: 7.4
